SYSTEM: human melanocortin 3 receptor (MC3R) (human, UniProt P41968 1-323)
Sequence (P41968 whole entry): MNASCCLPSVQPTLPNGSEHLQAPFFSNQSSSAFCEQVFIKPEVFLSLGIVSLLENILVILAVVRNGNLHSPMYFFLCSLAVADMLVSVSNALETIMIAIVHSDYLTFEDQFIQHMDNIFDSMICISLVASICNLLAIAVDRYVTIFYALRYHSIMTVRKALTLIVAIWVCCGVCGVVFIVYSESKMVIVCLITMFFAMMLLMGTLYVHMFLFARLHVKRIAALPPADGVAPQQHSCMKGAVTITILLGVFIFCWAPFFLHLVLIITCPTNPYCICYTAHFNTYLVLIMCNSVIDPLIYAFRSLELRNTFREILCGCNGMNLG
EXPERIMENT NOTES: cell-based or functional assay
Positions of bridges follow the written chain, without caps; N, C: chain ends. Non-standard residues stand in square brackets, D forms with d. d2Nal = N[C@H](Cc1ccc2ccccc2c1)C(=O)O; Nle = CCCC[C@H](N)C(=O)O
PARAMETER MEASURED: Max Activation % (%)

BINDER	PARAMETER MEASURED	UNIT	RESULT NUMBER
Ac-[Nle]DPH[d2Nal]RWK[dV][dP]-NH2 (lactam 2-8; SMILES CCCC[C@H](NC(C)=O)C(=O)N[C@H]1CC(=O)NCCCC[C@@H](C(=O)N[C@@H](C(=O)N2CCC[C@@H]2C(N)=O)C(C)C)NC(=O)[C@H](Cc2c[nH]c3ccccc23)NC(=O)[C@H](CCCNC(=N)N)NC(=O)[C@@H](Cc2ccc3ccccc3c2)NC(=O)[C@H](Cc2c[nH]cn2)NC(=O)[C@@H]2CCCN2C1=O) [D1]	Max Activation %	%	74.5

These data points were gathered from patent US20260098072A1.
